Collected pIC50 for Prostaglandin G/H synthase 1 (Ovis aries, UniProt P05979) across several studies; compounds listed below.
pIC50: −log10 of the molar value.

| COMPOUND | STUDY_TARGET | RELATION | pIC50 |
| --- | --- | --- | --- |
| Cc1ccc(-c2cc(C(F)(F)F)nn2-c2ccc(S(=O)(=O)NCCNS(=O)(=O)c3cccc4c(N(C)C)cccc34)cc2)cc1 | Prostaglandin G/H synthase 1 (Ovis aries, UniProt P05979) | < | 4.00 |
| CS(=O)(=O)c1ccc(-c2nc3c(n2-c2ccc(F)cc2)CCCC3)cc1 | Prostaglandin G/H synthase 1 (Ovis aries, UniProt P05979) | = | 4.25 |
| CS(=O)(=O)c1ccc(-c2cc3ccccc3cc2-c2ccccc2)cc1 | Prostaglandin G/H synthase 1 (Ovis aries, UniProt P05979) | < | 3.52 |
| O=C(/C=C/c1ccc(O)c(O)c1)OC(C(=O)O)C(OC(=O)/C=C/c1ccc(O)c(O)c1)C(OC(=O)/C=C/c1ccc(O)c(O)c1)C(OC(=O)/C=C/c1ccc(O)c(O)c1)C(=O)O (configuration not stated) | Prostaglandin G/H synthase 1 (Ovis aries, UniProt P05979) | = | 5.68 |
| Cc1ccc(-c2cc(-c3ccccc3)c(-c3ccc(S(C)(=O)=O)cc3)c(=O)o2)cc1 | Prostaglandin G/H synthase 1 (Ovis aries, UniProt P05979) | < | 4.00 |
| C#Cc1cccc(Nc2ncnc3cc(OCCOC(=O)Cc4c(C)n(C(=O)c5ccc(Cl)cc5)c5ccc(OC)cc45)c(OCCOC(=O)Cc4c(C)n(C(=O)c5ccc(Cl)cc5)c5ccc(OC)cc45)cc23)c1 | Prostaglandin G/H synthase 1 (Ovis aries, UniProt P05979) | = | 4.50 |
| C1=C(c2ccc3c(c2)OCO3)CCc2ccccc21 | Prostaglandin G/H synthase 1 (Ovis aries, UniProt P05979) | < | 4.00 |
| CCc1ccc(-c2cc(-c3ccc(S(C)(=O)=O)cc3)c(-c3ccccc3)c(=O)o2)cc1 | Prostaglandin G/H synthase 1 (Ovis aries, UniProt P05979) | < | 4.00 |
| O=C(c1cc2cc(Cl)ccc2n1Cc1ccc(Cl)cc1)N1CCN(Cc2ccc(Cl)cc2)CC1 | Prostaglandin G/H synthase 1 (Ovis aries, UniProt P05979) | = | 6.44 |
| Cc1ccc(/N=C/c2c[nH]c3ccccc23)cc1 | Prostaglandin G/H synthase 1 (Ovis aries, UniProt P05979) | = | 4.21 |
| N#CC1=C(N)N=C2SC(=S)NN2C1c1ccccc1 (configuration not stated) | Prostaglandin G/H synthase 1 (Ovis aries, UniProt P05979) | < | 4.30 |
| O=C(NCCOc1nc(Cl)nc(Nc2ccc(N3CCOCC3=O)cc2)n1)c1ccccc1F | Prostaglandin G/H synthase 1 (Ovis aries, UniProt P05979) | < | 5.00 |
| COc1ccc(C2CC(c3ccc(S(C)(=O)=O)cc3)=NN2c2ccc(S(N)(=O)=O)cc2)cc1OC (configuration not stated) | Prostaglandin G/H synthase 1 (Ovis aries, UniProt P05979) | = | 5.06 |
| CO/N=[N+](/[O-])c1ccc(-c2cc(C(F)(F)F)nn2-c2ccc(S(N)(=O)=O)cc2)cc1 | Prostaglandin G/H synthase 1 (Ovis aries, UniProt P05979) | = | 4.92 |
| CC[S+]([O-])c1nnc(-c2cc(C(C)(C)C)c(O)c(C(C)(C)C)c2)s1 (configuration not stated) | Prostaglandin G/H synthase 1 (Ovis aries, UniProt P05979) | < | 4.70 |
| CNC(=O)C(C)c1ccc(-c2ccccc2)cc1 (configuration not stated) | Prostaglandin G/H synthase 1 (Ovis aries, UniProt P05979) | = | 4.71 |
| CCCC/C=C/CSc1ccccc1OC(C)=O | Prostaglandin G/H synthase 1 (Ovis aries, UniProt P05979) | = | 4.66 |
| COc1ccc2c(c1)c(CC(=O)Nc1ncc(C)s1)c(C)n2C(=O)c1ccc(Cl)cc1 | Prostaglandin G/H synthase 1 (Ovis aries, UniProt P05979) | < | 4.18 |
| O=C(O)CC1=C/C(=C\c2ccc(-c3ccccc3)cc2)c2ccc(F)cc21 | Prostaglandin G/H synthase 1 (Ovis aries, UniProt P05979) | = | 6.24 |
| CS(=O)(=O)c1ccc(-n2nccc2-c2ccc(Nc3nc(N4CCCCC4)nc(N4CCCCC4)n3)cc2)cc1 | Prostaglandin G/H synthase 1 (Ovis aries, UniProt P05979) | = | 5.10 |
| COc1ccc2cc(C(C)C(=O)NN3C(=O)c4ccccc4C3=O)ccc2c1 (configuration not stated) | Prostaglandin G/H synthase 1 (Ovis aries, UniProt P05979) | < | 4.60 |
| CCSC[C@@H]1C[C@@](O)(c2ccccc2)C[C@H](C)O1 (relative stereo) | Prostaglandin G/H synthase 1 (Ovis aries, UniProt P05979) | = | 6.46 |
| COC(=O)CC[C@H](NC(=O)[C@H](Cc1cnc[nH]1)NC(=O)C(=O)c1cn(S(=O)(=O)c2ccc(C)cc2)c2ccccc12)C(=O)OC | Prostaglandin G/H synthase 1 (Ovis aries, UniProt P05979) | = | 4.12 |
| O=C(c1ccccc1)n1cc(/C=N/n2cnnc2)c2ccccc21 | Prostaglandin G/H synthase 1 (Ovis aries, UniProt P05979) | = | 4.98 |
| COc1ccc(-c2cc(C(F)(F)F)nn2-c2ccc(S(C)(=O)=O)c(CO)c2)cc1 | Prostaglandin G/H synthase 1 (Ovis aries, UniProt P05979) | = | 3.52 |
| [N-]=[N+]=Nc1ccc(C2=C(c3ccccc3)C(=O)OC2)cc1 | Prostaglandin G/H synthase 1 (Ovis aries, UniProt P05979) | = | 3.80 |
| CCSc1nnc(-c2cc(C(C)C)c(O)c(C(C)C)c2)s1 | Prostaglandin G/H synthase 1 (Ovis aries, UniProt P05979) | < | 4.70 |
| C=CCC1=C[C@]2(OC)[C@@H](O)[C@@](OC)(C1=O)[C@@H](c1cc(OC)c(OC)c(OC)c1)[C@@H]2C (stereo in doubt; 8) | Prostaglandin G/H synthase 1 (Ovis aries, UniProt P05979) | = | 4.14 |
| NS(=O)(=O)c1ccc(C#Cc2ccccn2)cc1 | Prostaglandin G/H synthase 1 (Ovis aries, UniProt P05979) | = | 5.03 |
| CCN(CC)/[N+]([O-])=N\OCOC(=O)/C(=C/c1ccc(S(C)(=O)=O)cc1)c1ccc(NC(C)=O)cc1 | Prostaglandin G/H synthase 1 (Ovis aries, UniProt P05979) | < | 4.00 |
| COc1ccc(-c2nn(-c3ccccc3)cc2/C=N\NC(N)=S)cc1 | Prostaglandin G/H synthase 1 (Ovis aries, UniProt P05979) | = | 4.21 |
| CCc1ccc(C2=C(c3cccc(F)c3)C(=O)OC2)cc1 | Prostaglandin G/H synthase 1 (Ovis aries, UniProt P05979) | = | 5.01 |
| COC(=O)c1cc(-c2ccc(I)cc2)n(-c2ccc(S(C)(=O)=O)cc2)n1 | Prostaglandin G/H synthase 1 (Ovis aries, UniProt P05979) | < | 5.40 |
| COc1ccc(-c2c(-c3ccc(S(C)(=O)=O)cc3)nc3sc(S(N)(=O)=O)nn23)cc1 | Prostaglandin G/H synthase 1 (Ovis aries, UniProt P05979) | < | 4.30 |
| CCCCCN1C(=O)[C@@H](Oc2ccccc2)[C@H]1c1ccc(S(C)(=O)=O)cc1 (relative stereo) | Prostaglandin G/H synthase 1 (Ovis aries, UniProt P05979) | = | 4.67 |
| O=C(O)Cn1nncc1CO[C@@H](C(=O)O)[C@@H](OCc1cnnn1CC(=O)O)C(=O)O | Prostaglandin G/H synthase 1 (Ovis aries, UniProt P05979) | = | 6.52 |
| CSc1ccc(-c2cc(-c3ccccc3)c(-c3ccc(N=[N+]=[N-])cc3)c(=O)o2)cc1 | Prostaglandin G/H synthase 1 (Ovis aries, UniProt P05979) | = | 4.52 |

---

pIC50: −log10 of the molar value.
Collected pIC50 for Prostaglandin G/H synthase 1 (Ovis aries, UniProt P05979) across several studies; molecules listed below.
READOUT_NAME: pIC50

| MOLECULE | RELATION | ASSAY_VALUE |
| --- | --- | --- |
| CS(=O)(=O)c1ccc(-c2c(-c3ccc(F)cc3)noc2C=O)cc1 | < | 4.00 |
| Cc1ccc(-c2nn(-c3ccccc3)cc2-c2nnc(-c3ccc(Cl)cc3)o2)cc1 | < | 4.00 |
| COc1ccc(-c2noc(CC(=O)NCCCCN)c2-c2ccc(OC)cc2)cc1 | = | 6.02 |
| CCOC(=O)Cn1nncc1CO[C@@H](C(=O)OCC)[C@@H](OCc1cnnn1CC(=O)OCC)C(=O)OCC | = | 4.22 |
| Cc1cccc(-c2cc(C(F)(F)F)nn2-c2ccc(S(N)(=O)=O)c(CO)c2)c1 | = | 3.49 |
| CS(=O)(=O)c1ccc(C(=O)C(=Cc2ccncc2)c2ccccc2)cc1 (mixture of isomers) | = | 4.91 |
| N#CCC(=O)Nc1nnc(-c2ccc(Cl)cc2)o1 | = | 4.86 |
| Cc1cccc(Cl)c1Nc1ccccc1CC(=O)O | = | 7.24 |
| CSC1=NC(=O)/C(=C/c2cc(C(C)(C)C)c(O)c(C(C)(C)C)c2)O1 | = | 5.80 |
| COc1ccc2cc(C(C)c3n[nH]c(=S)n3/N=C/c3ccc(O)cc3)ccc2c1 (configuration not stated) | < | 4.60 |
| Clc1ccc(Nc2nc(Cl)nc(OCc3cn(Cc4ccccc4)nn3)n2)cc1 | = | 5.40 |
| O=C(Oc1ccc2c(c1)CCC2)N(Nc1ccccc1)S(=O)(=O)c1ccc(Cl)cc1 | < | 6.00 |
| O=S(=O)(NCc1ccccc1)c1ccccc1-c1nnc(S)o1 | = | 5.34 |
| COc1ccc(C2=C(c3ccc(I)cc3)C(=O)OC2)cc1 | = | 7.05 |
| CS(=O)(=O)c1ccc(Cc2nnnn2-c2ccc(O)cc2)cc1 | = | 4.07 |
| CN(C)/C=C/C(=O)c1ccc(Nc2nc(N3CCOCC3)nc(N3CCOCC3)n2)cc1 | = | 5.40 |
| C[S+]([O-])c1nnc(-c2cc(C(C)(C)C)c(O)c(C(C)(C)C)c2)s1 (configuration not stated) | < | 4.70 |
| CCCOc1nnc(-c2cc(C(C)(C)C)c(O)c(C(C)(C)C)c2)s1 | < | 4.70 |
| O=C(N/N=C/c1ccc(F)cc1)C(C(=O)N/N=C/c1ccc(F)cc1)N1C(=O)c2ccccc2S1(=O)=O | = | 5.56 |
| Cc1cc(O)c2c(c1)C(=O)c1cccc(O)c1C2=O | = | 4.34 |
| O=C1CCCCC1C1CC(=O)N(c2ccccc2)C1=O (configuration not stated) | = | 4.18 |
| CS(=O)(=O)c1ccc(C2=NN(c3ccc(C(=O)O)cc3)C(c3ccc(F)cc3)C2)cc1 (configuration not stated) | = | 5.01 |
| Cc1ccc(S(=O)(=O)n2cc(C(=O)C(=O)N[C@H](C(=O)NCC(=O)O)c3c[nH]c4ccccc34)c3ccccc32)cc1 | = | 4.89 |
| CS(=O)(=O)c1ccc(C2SCCC(=O)N2CCc2ccccc2)cc1 (configuration not stated) | = | 4.80 |
| CS(=O)(=O)c1ccccc1C#Cc1ccccn1 | = | 6.55 |
| CC(=O)c1c(C)cc2cccc(OCc3ccccc3Br)c2c1O | = | 4.61 |
| O=C1OCC(c2ccccc2)=C1c1ccc(Oc2ccc(F)cc2)cc1 | < | 4.60 |
| Cc1ccc(-n2nnnc2-c2ccc(S(C)(=O)=O)cc2)cc1 | = | 2.09 |
| N#Cc1ccc(C(=O)/C=C/c2c[nH]c3ccc(Br)cc23)cc1 | = | 4.64 |
| NS(=O)(=O)c1ccc(CCn2cc(-c3ccc(F)cc3)nn2)cc1 | < | 4.00 |
| CC(C(=O)O)c1cccc(C(=O)c2ccccc2)c1 (configuration not stated) | = | 7.17 |
| O=C(O)c1ccc(-c2ccn(C(F)F)c(=O)c2)cc1O | < | 4.00 |
| O=C(O)Cn1c2c(c3cc(F)ccc31)CN(C(=O)c1cccs1)CC2 | < | 5.00 |
| CCCCC#CCOc1ccccc1OC(C)=O | < | 4.40 |
| O=[N+]([O-])c1ccc(/C=N/c2nnc(-c3cccnc3)o2)cc1 | = | 5.08 |
| CC(=O)c1nnn(-c2ccc(S(=O)(=O)Nc3nccs3)cc2)c1C | = | 5.24 |
| CCSc1ncc(-c2ccc(S(C)(=O)=O)cc2)n1-c1ccc(Br)cc1 | < | 5.40 |
| C=CCC1=C[C@]2(OC)C(=O)[C@@](OC)(C1=O)[C@H](c1cc(OC)c3c(c1)OCO3)[C@H]2C | = | 3.78 |
| CN(C)/C=C/C(=O)c1ccc(Nc2nc(N3CCCCC3)nc(N3CCCCC3)n2)cc1 | = | 5.16 |
| CC(=O)Oc1ccc(-c2cc(C(F)(F)F)nn2-c2ccc(S(C)(=O)=O)cc2)cc1 | = | 4.10 |
| COC1(c2cccc(CS(=O)(=O)Nc3cc(C)ccc3OCc3ccccc3)c2)CCOCC1 | = | 4.78 |
| CC(=O)c1ccc(Nc2nc(N3CCCCC3)nc(N3CCCCC3)n2)cc1 | = | 5.08 |
